# Target entity: TDO2 in A172 cancer cells (Homo sapiens, UniProt P48775)
# Construct: endogenous in cells
# Sequence (P48775 whole entry): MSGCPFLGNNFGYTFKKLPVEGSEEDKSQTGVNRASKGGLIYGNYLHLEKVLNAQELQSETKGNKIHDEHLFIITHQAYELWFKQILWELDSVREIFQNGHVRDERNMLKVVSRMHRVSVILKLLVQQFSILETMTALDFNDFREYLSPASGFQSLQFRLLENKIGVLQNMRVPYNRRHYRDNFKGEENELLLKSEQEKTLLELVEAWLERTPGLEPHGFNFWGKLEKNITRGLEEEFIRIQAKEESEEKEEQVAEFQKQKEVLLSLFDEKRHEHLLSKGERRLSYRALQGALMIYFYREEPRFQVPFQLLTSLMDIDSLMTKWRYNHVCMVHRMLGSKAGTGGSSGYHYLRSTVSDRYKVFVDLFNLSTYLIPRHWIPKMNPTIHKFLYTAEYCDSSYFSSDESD
# Test: TDO2 Cellular Assay (kynurenine production in A172 cancer cells)
# Condition details: L-Trp 1 mM, 24 hours incubation, kynurenine at 490 nm
Reported endpoint: IC50

# count of solved cases: 3
>  <Compound>
CC(=O)N[C@@H]1[C@@H]2CN(c3cc(Cl)cc4[nH]ncc34)C[C@@H]21 [Example 21]

>  <IC50>
1000 to 5000 nM

$$$$
>  <Compound>
CS(=O)(=O)N[C@H]1C[C@@H]2C[C@@](O)(c3cc(Cl)cc4[nH]ncc34)C[C@@H]2C1 [Example 3]

>  <IC50>
≤ 500 nM

$$$$
>  <Compound>
O=C(N[C@H]1[C@@H]2C[C@@](O)(c3cc(Cl)cc4[nH]ncc34)C[C@@H]21)c1nc2cc(Cl)ccc2[nH]1 [Example 136]

>  <IC50>
≤ 500 nM

$$$$

Now for another entry.
Observed IC50 on TDO2 in A172 cancer cells (Homo sapiens, UniProt P48775), entry O=C(N[C@H]1[C@@H]2C[C@@](O)(c3cc(Cl)cc4[nH]ncc34)C[C@@H]21)c1cnoc1 [Example 158] , equals 1000 to 5000 nM

###

# Target entity: IDO1 in Hela cancer cells (Homo sapiens)
# Construct: endogenous in cells
# Sequence (P14902 whole entry): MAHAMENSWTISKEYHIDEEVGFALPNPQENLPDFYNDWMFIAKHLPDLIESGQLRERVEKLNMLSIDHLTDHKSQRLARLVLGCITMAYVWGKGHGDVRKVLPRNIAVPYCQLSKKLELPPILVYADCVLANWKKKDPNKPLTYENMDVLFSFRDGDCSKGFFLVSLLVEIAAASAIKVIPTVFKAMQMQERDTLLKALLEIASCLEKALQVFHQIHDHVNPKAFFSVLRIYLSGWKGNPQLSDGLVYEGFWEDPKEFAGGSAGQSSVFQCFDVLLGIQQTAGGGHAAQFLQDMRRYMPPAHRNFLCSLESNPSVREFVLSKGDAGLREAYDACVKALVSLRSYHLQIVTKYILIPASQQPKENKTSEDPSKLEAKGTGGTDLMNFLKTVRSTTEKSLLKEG
# Test: IDO1 Cellular Assay (kynurenine production in IFN-γ stimulated Hela cancer cells)
# Condition details: human IFN-γ 50 ng/mL, 48 hours incubation, kynurenine at 490 nm
pIC50: −log10 of the molar value.
Catalogue of pIC50 values

# count of solved cases: 6
>  <Compound>
O=C(N[C@H]1[C@@H]2C[C@@](O)(c3cc(Cl)cc4[nH]ncc34)C[C@@H]21)c1ccc(F)c(Br)c1 [Example 176]

>  <Target entity>
IDO1 in Hela cancer cells (Homo sapiens)

>  <Reported value>
≥ 6.30

$$$$
>  <Compound>
CC(=O)N1C[C@H]2CC(C(O)c3cc(Cl)cc4cn[nH]c34)C[C@H]2C1 (stereo partly shown) [Example 112]

>  <Target entity>
IDO1 in Hela cancer cells (Homo sapiens)

>  <Reported value>
6.00 to 6.30

$$$$
>  <Compound>
O=C(N[C@H]1[C@@H]2C[C@@](O)(c3cc(Cl)cc4[nH]ncc34)C[C@@H]21)c1ccnc(C(F)(F)F)c1 [Example 156]

>  <Target entity>
IDO1 in Hela cancer cells (Homo sapiens)

>  <Reported value>
≥ 6.30

$$$$
>  <Compound>
N#CCC(=O)N[C@H]1[C@@H]2C[C@@](O)(c3cc(Cl)cc4[nH]ncc34)C[C@@H]21 [Example 137]

>  <Target entity>
IDO1 in Hela cancer cells (Homo sapiens)

>  <Reported value>
5.30 to 6.00

$$$$
>  <Compound>
O=C(N[C@H]1[C@@H]2C[C@@](O)(c3cc(Cl)cc4[nH]ncc34)C[C@@H]21)c1ccnc2ccccc12 [Example 169]

>  <Target entity>
IDO1 in Hela cancer cells (Homo sapiens)

>  <Reported value>
5.30 to 6.00

$$$$
>  <Compound>
CS(=O)(=O)N[C@H]1[C@@H]2C[C@@](O)(c3cc(Cl)cc4cn[nH]c34)C[C@@H]21 [Example 109]

>  <Target entity>
IDO1 in Hela cancer cells (Homo sapiens)

>  <Reported value>
5.30 to 6.00

$$$$

Now for another entry.
Form field pIC50, entry O=C(N[C@H]1[C@@H]2C[C@@](O)(c3cc(Cl)cc4cn[nH]c34)C[C@@H]21)c1ccncc1 [Example 130] : 6.00 to 6.30
